molecular target: Angiotensin-converting enzyme (Homo sapiens, UniProt P12821); assay: Inhibition of recombinant ACE N domain
Sequence (P12821 whole entry): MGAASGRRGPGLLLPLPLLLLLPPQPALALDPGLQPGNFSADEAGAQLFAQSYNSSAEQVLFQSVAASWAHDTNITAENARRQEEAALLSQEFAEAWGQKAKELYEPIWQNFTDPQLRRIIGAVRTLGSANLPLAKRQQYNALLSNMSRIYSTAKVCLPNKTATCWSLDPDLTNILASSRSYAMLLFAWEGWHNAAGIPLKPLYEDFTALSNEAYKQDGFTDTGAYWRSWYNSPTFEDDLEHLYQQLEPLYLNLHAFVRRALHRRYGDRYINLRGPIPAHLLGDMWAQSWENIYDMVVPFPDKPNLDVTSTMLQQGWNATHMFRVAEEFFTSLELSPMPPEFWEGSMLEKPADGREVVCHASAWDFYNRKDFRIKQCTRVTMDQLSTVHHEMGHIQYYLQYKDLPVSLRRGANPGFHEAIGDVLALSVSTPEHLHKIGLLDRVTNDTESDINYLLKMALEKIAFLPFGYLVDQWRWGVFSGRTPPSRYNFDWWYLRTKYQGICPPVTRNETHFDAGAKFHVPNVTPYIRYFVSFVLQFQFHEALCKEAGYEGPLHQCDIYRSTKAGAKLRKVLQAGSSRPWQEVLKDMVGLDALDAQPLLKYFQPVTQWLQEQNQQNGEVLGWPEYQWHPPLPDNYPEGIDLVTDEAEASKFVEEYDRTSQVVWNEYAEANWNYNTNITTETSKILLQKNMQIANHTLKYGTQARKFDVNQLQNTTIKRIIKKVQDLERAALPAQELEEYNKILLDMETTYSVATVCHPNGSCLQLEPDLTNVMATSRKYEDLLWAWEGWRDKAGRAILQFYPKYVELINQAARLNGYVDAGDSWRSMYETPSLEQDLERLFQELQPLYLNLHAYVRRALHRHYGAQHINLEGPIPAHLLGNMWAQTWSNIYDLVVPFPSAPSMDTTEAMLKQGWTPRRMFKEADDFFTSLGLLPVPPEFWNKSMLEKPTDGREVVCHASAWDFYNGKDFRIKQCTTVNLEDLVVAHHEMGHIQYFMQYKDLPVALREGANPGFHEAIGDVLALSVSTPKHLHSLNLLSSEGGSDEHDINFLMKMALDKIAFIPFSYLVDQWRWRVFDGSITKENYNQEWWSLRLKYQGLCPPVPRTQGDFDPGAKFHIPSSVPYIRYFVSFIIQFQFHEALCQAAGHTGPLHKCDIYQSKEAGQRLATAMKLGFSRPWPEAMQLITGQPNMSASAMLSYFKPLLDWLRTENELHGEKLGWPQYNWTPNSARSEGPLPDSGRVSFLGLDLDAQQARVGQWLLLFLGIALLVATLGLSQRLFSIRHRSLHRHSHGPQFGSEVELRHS
test-readout: pKi
Conceptually, pKi converts a concentration in mol/L into minus its log10.

response.value for "CC(C)(C)OC(=O)N[C@@H](Cc1ccccc1)C(=O)CCC(=O)N[C@@H](Cc1ccccc1)C(=O)O" (field: pKi) = 4.37

response.value for "CC(C)(C)OC(=O)N[C@@H](Cc1ccccc1)C(=O)CCC(=O)N[C@@H](Cc1c[nH]c2ccccc12)C(=O)O" (field: pKi) = 4.88

----------
assay: Selectivity for rabbit testis ACE C domain over human ACE N domain
test-readout: Ratio Ki
Give a plain numeric answer without units written out.

response.value for "CC(C)(C)OC(=O)N[C@@H](Cc1ccccc1)C(=O)CCC(=O)N[C@@H](Cc1c[nH]c2ccccc12)C(=O)O" (field: Ratio Ki) = 0.04

response.value for "O=C(CCC(=O)[C@H](Cc1ccccc1)NC(=O)c1ccccc1)N[C@@H](Cc1c[nH]c2ccccc12)C(=O)O" (field: Ratio Ki) = 245

response.value for "O=C(CCC(=O)[C@H](Cc1ccccc1)NC(=O)c1ccccc1)N[C@@H](Cc1ccccc1)C(=O)O" (field: Ratio Ki) = 3.6

response.value for "CC(C)(C)OC(=O)N[C@@H](Cc1ccccc1)C(=O)CCC(=O)N1CCC[C@H]1C(=O)O" (field: Ratio Ki) = 0.2

response.value for "CC(C)(C)OC(=O)N[C@@H](Cc1ccccc1)C(=O)CCC(=O)N[C@@H](Cc1ccccc1)C(=O)O" (field: Ratio Ki) = 0.1

----------
Target: Angiotensin-converting enzyme (Oryctolagus cuniculus, UniProt P12822)
Sequence (P12822 whole entry): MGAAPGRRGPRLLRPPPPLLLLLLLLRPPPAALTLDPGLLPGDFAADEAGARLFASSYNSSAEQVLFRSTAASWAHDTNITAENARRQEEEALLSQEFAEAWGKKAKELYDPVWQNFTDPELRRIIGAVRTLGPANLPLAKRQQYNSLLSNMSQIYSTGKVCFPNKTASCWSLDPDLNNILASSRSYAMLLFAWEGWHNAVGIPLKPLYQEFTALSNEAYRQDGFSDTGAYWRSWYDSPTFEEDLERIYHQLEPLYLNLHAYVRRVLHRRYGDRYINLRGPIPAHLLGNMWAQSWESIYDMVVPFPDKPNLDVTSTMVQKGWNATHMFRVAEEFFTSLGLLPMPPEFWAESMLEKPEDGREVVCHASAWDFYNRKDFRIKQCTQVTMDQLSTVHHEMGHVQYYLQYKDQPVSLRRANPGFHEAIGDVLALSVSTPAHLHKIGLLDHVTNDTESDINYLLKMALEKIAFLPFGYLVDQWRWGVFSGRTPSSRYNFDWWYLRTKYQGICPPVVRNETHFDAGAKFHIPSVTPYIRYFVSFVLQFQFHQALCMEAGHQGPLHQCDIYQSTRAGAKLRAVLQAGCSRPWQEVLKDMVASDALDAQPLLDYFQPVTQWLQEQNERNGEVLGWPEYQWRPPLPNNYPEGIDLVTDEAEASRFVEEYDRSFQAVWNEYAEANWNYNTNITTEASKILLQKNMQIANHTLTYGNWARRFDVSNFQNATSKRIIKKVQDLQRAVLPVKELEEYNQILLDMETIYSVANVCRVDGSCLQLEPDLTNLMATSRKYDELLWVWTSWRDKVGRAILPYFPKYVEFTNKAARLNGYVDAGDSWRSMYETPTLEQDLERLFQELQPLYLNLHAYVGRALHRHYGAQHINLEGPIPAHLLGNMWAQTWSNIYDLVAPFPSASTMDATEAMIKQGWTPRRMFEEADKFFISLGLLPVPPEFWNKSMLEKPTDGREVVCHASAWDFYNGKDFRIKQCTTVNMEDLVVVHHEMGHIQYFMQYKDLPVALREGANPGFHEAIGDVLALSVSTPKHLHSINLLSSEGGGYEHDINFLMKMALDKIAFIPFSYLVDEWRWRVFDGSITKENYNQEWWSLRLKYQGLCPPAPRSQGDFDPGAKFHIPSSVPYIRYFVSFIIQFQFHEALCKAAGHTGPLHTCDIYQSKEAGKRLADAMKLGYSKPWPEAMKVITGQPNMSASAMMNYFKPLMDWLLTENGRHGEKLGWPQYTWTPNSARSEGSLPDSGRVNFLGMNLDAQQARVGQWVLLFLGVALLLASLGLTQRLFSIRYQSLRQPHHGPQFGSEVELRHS
Assay: Inhibition of rabbit testis recombinant ACE C domain
// returns N unless Ki is strictly below 20 µM, in which case Y

Query: # strict comparison: is reported Ki < 20 µM? input = "CC(C)(C)OC(=O)N[C@@H](Cc1ccccc1)C(=O)CCC(=O)N[C@@H](Cc1c[nH]c2ccccc12)C(=O)O"
Reply: N

Query: # strict comparison: is reported Ki < 20 µM? input = "CC(C)(C)OC(=O)N[C@@H](Cc1ccccc1)C(=O)CCC(=O)N[C@@H](Cc1ccccc1)C(=O)O"
Reply: N

Query: # strict comparison: is reported Ki < 20 µM? input = NCCCC[C@H](N[C@@H](CCc1ccccc1)C(=O)O)C(=O)N1CCC[C@H]1C(=O)O [LISINOPRIL ANHYDROUS]
Reply: Y

Query: # strict comparison: is reported Ki < 20 µM? input = "O=C(CCC(=O)[C@H](Cc1ccccc1)NC(=O)c1ccccc1)N[C@@H](Cc1c[nH]c2ccccc12)C(=O)O"
Reply: Y

Query: # strict comparison: is reported Ki < 20 µM? input = "CC(C)(C)OC(=O)N[C@@H](Cc1ccccc1)C(=O)CCC(=O)N1CCC[C@H]1C(=O)O"
Reply: N

Query: # strict comparison: is reported Ki < 20 µM? input = "O=C(CCC(=O)[C@H](Cc1ccccc1)NC(=O)c1ccccc1)N[C@@H](Cc1ccccc1)C(=O)O"
Reply: N
